assay: in vitro; type: in vitro ADME; settings: human, Caco-2, pH 7.4, Recovery (%) A→B
Where a name gives a salt, the structure may show the parent alone.

| Compound | Measurement unit | recovery at 2 h, 10 μM |
| --- | --- | --- |
| CC(C)Nc1cccnc1N1CCN(C(=O)c2cc3cc(NS(C)(=O)=O)ccc3[nH]2)CC1 [Delavirdine Mesylate, reference compound] | % | 65 |

---

experiment: Toxicity XTT in CEM-SS cells (drug resistant strain assay); format: cell-based; details: human, CEM-SS cells, run with HIV-1 strain NL4-3; read-out: TC50 (the source's name)
Reported values of CC50 for individual entries
Assay metric: CC50

| Compound | Reported measurement |
| --- | --- |
| COCCNc1ccc2[nH]c(C(=O)N3CCN(c4ncccc4NC(C)C)CC3)cc2c1 [5-mPEG1-NH-Delavirdine, 5-mPEG-NH-Delavirdine] | > 1000 nM |
| COCCOCCNc1ccc2[nH]c(C(=O)N3CCN(c4ncccc4NC(C)C)CC3)cc2c1 [5-mPEG2-NH-Delavirdine] | > 1000 nM |
| COCCOCCOCCOCCOc1ccc2[nH]c(C(=O)N3CCN(c4ncccc4NC(C)C)CC3)cc2c1 [mPEG4-O-Delavirdine, 5-O-mPEG4-Delavirdine] | > 5000 nM |
| Cc1ccnc2c1NC(=O)c1cccnc1N2C1CC1 [Nevirapine, reference compound] | > 10000 nM |
| CC(C)Nc1cccnc1N1CCN(C(=O)c2cc3cc(NS(C)(=O)=O)ccc3[nH]2)CC1 [Delavirdine, reference compound] | > 500 nM |
| COCCOCCOCCOc1ccc2[nH]c(C(=O)N3CCN(c4ncccc4NC(C)C)CC3)cc2c1 [mPEG3-O-Delavirdine, 5-O-mPEG3-Delavirdine] | > 5000 nM |

---

CC50 values for the compounds below.
assay: Toxicity XTT in CEM-SS cells (drug resistant strain assay); type: cell-based; conditions: human, CEM-SS cells, run with HIV-1 strain NL4-3P236L; read-out: TC50 (the source's name)

| Compound | CC50 |
| --- | --- |
| COCCNc1ccc2[nH]c(C(=O)N3CCN(c4ncccc4NC(C)C)CC3)cc2c1 [5-mPEG1-NH-Delavirdine, 5-mPEG-NH-Delavirdine] | > 1000 nM |
| COCCOCCNc1ccc2[nH]c(C(=O)N3CCN(c4ncccc4NC(C)C)CC3)cc2c1 [5-mPEG2-NH-Delavirdine] | > 1000 nM |
| CC(C)Nc1cccnc1N1CCN(C(=O)c2cc3cc(NS(C)(=O)=O)ccc3[nH]2)CC1 [Delavirdine, reference compound] | > 500 nM |
| COCCOCCOCCOCCOc1ccc2[nH]c(C(=O)N3CCN(c4ncccc4NC(C)C)CC3)cc2c1 [mPEG4-O-Delavirdine, 5-O-mPEG4-Delavirdine] | > 5000 nM |
| Cc1ccnc2c1NC(=O)c1cccnc1N2C1CC1 [Nevirapine, reference compound] | > 10000 nM |
| COCCOCCOCCOc1ccc2[nH]c(C(=O)N3CCN(c4ncccc4NC(C)C)CC3)cc2c1 [mPEG3-O-Delavirdine, 5-O-mPEG3-Delavirdine] | > 5000 nM |

---

assay: in vitro; type: in vitro ADME; conditions: human, Caco-2, pH 7.4, Test 1, 10 μM, 2 hours; read-out: Recovery (%) B→A
# key: entry, value: recovery at 2 h, 10 μM

| Compound | Measurement unit | recovery at 2 h, 10 μM |
| --- | --- | --- |
| COCCOCCOCCOCCOCCOCCOc1ccc2[nH]c(C(=O)N3CCN(c4ncccc4NC(C)C)CC3)cc2c1 [mPEG6-O-Delavirdine, 5-O-mPEG6-Delavirdine] | % | 72 |
| COCCOCCOCCOCCOc1ccc2[nH]c(C(=O)N3CCN(c4ncccc4NC(C)C)CC3)cc2c1 [mPEG4-O-Delavirdine, 5-O-mPEG4-Delavirdine] | % | 65 |
| COCCOCCOCCOCCOCCOc1ccc2[nH]c(C(=O)N3CCN(c4ncccc4NC(C)C)CC3)cc2c1 [mPEG5-O-Delavirdine, 5-O-mPEG5-Delavirdine] | % | 65 |

---

assay: Caco-2 permeability characterization (plate certification); settings: human, Caco-2, Efflux Ratio, Test 2, Passage Number 59

| Compound | efflux ratio |
| --- | --- |
| C[C@H]1O[C@@H](O[C@H]2[C@@H](O)C[C@H](O[C@H]3[C@@H](O)C[C@H](O[C@H]4CC[C@@]5(C)[C@H](CC[C@@H]6[C@@H]5C[C@@H](O)[C@]5(C)[C@@H](C7=CC(=O)OC7)CC[C@]65O)C4)O[C@@H]3C)O[C@@H]2C)C[C@H](O)[C@@H]1O [Digoxin] | 26 |

---

Recorded Papp A→B at 2 hours, 10 μM values for a group of molecules are listed next.
assay: in vitro; assay type: in vitro ADME; conditions: human, Caco-2, pH 7.4, Test 1, 10 μM, 2 hours, pH 7.4; read-out: Average Papp, A→B
Assay metric: Papp A→B at 2 hours, 10 μM (×10⁻⁶ cm/s)

| Structure notation | Reported measurement |
| --- | --- |
| COCCOCCOCCOCCOCCOCCOCCOCCOc1ccc2[nH]c(C(=O)N3CCN(c4ncccc4NC(C)C)CC3)cc2c1 | 4.98 |
| COCCOCCOCCOCCOc1ccc2[nH]c(C(=O)N3CCN(c4ncccc4NC(C)C)CC3)cc2c1 | 39.3 |
| COCCOCCOCCOc1ccc2[nH]c(C(=O)N3CCN(c4ncccc4NC(C)C)CC3)cc2c1 | 38.4 |
| COCCOCCOCCOCCOCCOc1ccc2[nH]c(C(=O)N3CCN(c4ncccc4NC(C)C)CC3)cc2c1 | 29.9 |
| COCCOCCOCCOCCOCCOCCOc1ccc2[nH]c(C(=O)N3CCN(c4ncccc4NC(C)C)CC3)cc2c1 | 16.1 |
| COCCOCCOCCOCCOCCOCCOCCOc1ccc2[nH]c(C(=O)N3CCN(c4ncccc4NC(C)C)CC3)cc2c1 | 14.2 |

---

// values below are reported EC50
system: NL4-3P236L; experiment: Anti-HIV cytoprotection assay, drug resistant NL4-3 P236L; format: cell-based; details: HIV-1 strain NL4-3P236L, CEM-SS cells
Assay metric: EC50 (nM)

| Compound | Reported measurement |
| --- | --- |
| Cc1ccnc2c1NC(=O)c1cccnc1N2C1CC1 [Nevirapine, reference compound] | 280 |
| CC(C)Nc1cccnc1N1CCN(C(=O)c2cc3cc(NS(C)(=O)=O)ccc3[nH]2)CC1 [Delavirdine, reference compound] | 500 |

---

system: HIV-1RF; test: Anti-HIV-1 cytoprotection assay in CEM-SS cells; assay type: cell-based; conditions: CEM-SS/HIV-1RF

| Structure notation | Therapeutic Index |
| --- | --- |
| COCCOCCNc1ccc2[nH]c(C(=O)N3CCN(c4ncccc4NC(C)C)CC3)cc2c1 | 3266.29 |
| COCCOCCOCCOCCOc1ccc2[nH]c(C(=O)N3CCN(c4ncccc4NC(C)C)CC3)cc2c1 | 213.8 |
| COCCOCCOCCOCCOCCOc1ccc2[nH]c(C(=O)N3CCN(c4ncccc4NC(C)C)CC3)cc2c1 | 19.0 |

---

Assay: Caco-2 permeability characterization (plate certification)
Conditions: human, Caco-2, (A-to-B) Papp, Test 1, Passage Number 65
Description: The objective of this study was to determine the bidirectional Caco-2 permeability of test compounds. Caco-2 monolayers were grown to confluence on collagen-coated, microporous, polycarbonate membranes in 12-well Costar Transwell® plates. Details of the plates and their certification are shown below. […] The lucifer yellow flux was also measured for each monolayer to ensure no damage was inflicted to the cell monolayers during the flux period. […]

| Structure notation | Papp A→B [×10⁻⁶ cm/s] |
| --- | --- |
| C[C@H]1O[C@@H](O[C@H]2[C@@H](O)C[C@H](O[C@H]3[C@@H](O)C[C@H](O[C@H]4CC[C@@]5(C)[C@H](CC[C@@H]6[C@@H]5C[C@@H](O)[C@]5(C)[C@@H](C7=CC(=O)OC7)CC[C@]65O)C4)O[C@@H]3C)O[C@@H]2C)C[C@H](O)[C@@H]1O | 0.47 |

---

assay: Caco-2 permeability characterization (plate certification); settings: human, Caco-2, Efflux Ratio, Test 1, Passage Number 65
Assay metric: efflux ratio

| Structure notation | Reported measurement |
| --- | --- |
| C[C@H]1O[C@@H](O[C@H]2[C@@H](O)C[C@H](O[C@H]3[C@@H](O)C[C@H](O[C@H]4CC[C@@]5(C)[C@H](CC[C@@H]6[C@@H]5C[C@@H](O)[C@]5(C)[C@@H](C7=CC(=O)OC7)CC[C@]65O)C4)O[C@@H]3C)O[C@@H]2C)C[C@H](O)[C@@H]1O | 23 |

---

assay: Toxicity XTT in CEM-SS cells (cytoprotection assay); format: cell-based; conditions: human, CEM-SS cells, XTT; read-out: CEM-SS TC50
Listing of recorded CC50 by entry.
Assay metric: CC50 (µM)

| Molecule | Operator symbol | Reported measurement |
| --- | --- | --- |
| COCCNc1ccc2[nH]c(C(=O)N3CCN(c4ncccc4NC(C)C)CC3)cc2c1 | = | 50.9 |
| COCCOCCNc1ccc2[nH]c(C(=O)N3CCN(c4ncccc4NC(C)C)CC3)cc2c1 | = | 55.5 |
| COCCOCCOCCNc1ccc2[nH]c(C(=O)N3CCN(c4ncccc4NC(C)C)CC3)cc2c1 | = | 34.9 |
| COCCOCCOCCOc1ccc2[nH]c(C(=O)N3CCN(c4ncccc4NC(C)C)CC3)cc2c1 | = | 26.9 |
| COCCOCCOCCOCCOc1ccc2[nH]c(C(=O)N3CCN(c4ncccc4NC(C)C)CC3)cc2c1 | = | 34 |
| COCCOCCOCCOCCOCCOCCOc1ccc2[nH]c(C(=O)N3CCN(c4ncccc4NC(C)C)CC3)cc2c1 | = | 22.5 |
| Cc1cn([C@H]2C[C@H](N=[N+]=[N-])[C@@H](CO)O2)c(=O)[nH]c1=O [AZT, reference compound] | > | 1 |
| COCCOCCOCCOCCOCCOCCOCCOCCOc1ccc2[nH]c(C(=O)N3CCN(c4ncccc4NC(C)C)CC3)cc2c1 | = | 52.5 |
| COCCOCCOCCOCCOCCOc1ccc2[nH]c(C(=O)N3CCN(c4ncccc4NC(C)C)CC3)cc2c1 | = | 14.4 |
| COCCOCCOCCOCCOCCOCCOCCOc1ccc2[nH]c(C(=O)N3CCN(c4ncccc4NC(C)C)CC3)cc2c1 | = | 35.5 |

Where do these numbers come from? They come from patent US9421204B2.
